# assayComment: NCI Yeast Anticancer Drug Screen. Data for the mec2-1 strain (AID 157)
# conditionLabel: S. cerevisiae mec2-1 strain, at 50.0 µM, stronger effect = higher value
The panel holds about 79,000 compounds, 15% with a hit somewhere; the sample as a whole holds those more often.

molecule	growth inhibition (%)
N#Cc1[nH]c(=S)[nH]c1N	-7.85
CCOC(=O)N/N=C(\CC)NO	1.35
COC1OC2COC(C)(C)OC2C1OS(=O)(=O)c1ccc(C)cc1 (stereo unspecified)	12.6
Cc1ccc(CN(CCO)Cc2ccccc2)cc1	39
Cc1cccc(C)c1NC(=O)Nc1cccc(C#N)c1	-10.8
Clc1ccccc1Nc1c2ccccc2nc2ccccc12	98.1

====

# assayComment: NCI Yeast Anticancer Drug Screen. Data for the sgs1 mgt1 strain (AID 161);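 further: 0% = growth of cultures given vehicle only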
# conditionLabel: S. cerevisiae sgs1 mgt1 strain, at 50.0 µM, stronger effect = higher value
This is part of a sample that, as a whole, favours compounds with a hit. Of some 79,000 tested, about 15% had one in any assay.

compound	growth inhibition, %
CCOc1ccc2ccccc2c1N	24.3
CCCC1CCCC1C (stereo unspecified)	8.45
O=C(O)Cn1ccc(=O)c2cc([N+](=O)[O-])ccc21	-11.1
COc1[nH]c2ccccc2c1C=O	22.3
S=C1CC(c2ccccc2)Sc2ccccc2N1 (stereo unspecified)	13.9
CCCCCCCCCCCCCCCCS(=O)(=O)N/N=C(/c1ccc(OC)c(OC)c1)N1CCCCC1	8.6
COc1ccc(C(=O)Cc2ccc3ccccc3n2)cc1	-6.8
C[n+]1ccc(Nc2ccc(NC(=O)c3ccc(N)cc3)cc2)cc1	8.6
CCN(CCOC(=O)Nc1ccc(Cl)cc1)C(=O)Nc1ccc(Cl)cc1	16.4
CC1CCCCN1CCCO (stereo unspecified)	-22.1
CC(=O)NC(CCCN)C(=O)NCc1ccccc1 (stereo unspecified)	-20.3
BrC1=C(c2ccccc2)SC(Br)=C(c2ccccc2)S1	1.2
O=P(O)(Cc1ccccc1)OCC1(O)OCC(O)C(O)C1O (stereo unspecified)	-28.6
COC(=O)[C@@H]1[C@H](O)CC[C@H]2[C@@]1(C)CC[C@@H](C)[C@]2(COC(C)=O)CC(=O)c1ccoc1	-37
Cc1cc(C)c2ccc(=O)[nH]c2n1	2.6
C=C1C(=O)OC2CCCC(O)C12 (stereo unspecified)	-6.55
COc1ccccc1Br	-2
Cc1nc(-c2cc([N+](=O)[O-])cc([N+](=O)[O-])c2)oc1-c1ccccc1	-7.35
N=C(N)c1ccncc1	8.45
COc1ccc2nc(NCN3C(=O)c4ccccc4C3=O)sc2c1	-19.1
CN1C(=O)CCC1(O)C1C=CC=CC1 (stereo unspecified)	1.75
COc1cc([C@@H]2c3cc4c(cc3[C@@H](Nc3ccccc3C(=O)c3ccccc3)[C@H]3COC(=O)[C@H]23)OCO4)cc(OC)c1OC	-18.5
CCCCCCCCCCCCCCC1CC(=O)OC1=O (stereo unspecified)	-9.55
COC(=O)CC/C=N/NC(N)=O	7.7
CN1C(=O)CC(c2ccc(Cl)cc2)C1=O (stereo unspecified)	-0.65
CCO/C=C(\C(=O)OC)S(=O)(=O)c1ccc(C)cc1	2.35

====

# assayComment: NCI Yeast Anticancer Drug Screen. Data for the mec2-1 strain (AID 157)
# conditionLabel: S. cerevisiae mec2-1 strain, at 50.0 µM
This is part of a sample that, as a whole, favours compounds with a hit. Of some 79,000 tested, about 15% had one in any assay. The source made the active and inactive calls. Cut-off read from the data, not from the text of the source: active = growth inhibition above about 70%; inactive = the rest.
Outcomes: YES (active), NO (inactive)

compound	categoryLabel
CC(C)(C)C1=CC(=N/S(=O)(=O)c2ccccc2)/C(N=[N+]=[N-])=C(Cl)C/1=N\S(=O)(=O)c1ccccc1	NO
CC(C)C(NC(=O)C1CSC(C)(C)N1C=O)C(N)=O (stereo unspecified)	NO
COC(=O)c1ccccc1NCc1cc(Cl)ccc1O	YES
BrCC1OCC2(CO1)COC(CBr)OC2 (stereo unspecified)	NO
N#CCCN(c1ccc(C=Nc2ccccc2Cl)cc1)S(=O)(=O)c1ccccc1	NO
COC(=O)c1ccc(C(=O)OC)c2nn3c(N)nnc3nc12	NO
